- Test name: D90 particle size of atovaquone by Malvern Mastersizer
- Assay type: physicochemical
- Experimental context: Run 1, stir time 4 min
Measurement name: D90 particle size (microns)

O=C1C(O)=C([C@H]2CC[C@H](c3ccc(Cl)cc3)CC2)C(=O)c2ccccc21 [Example 1] : 5.088
O=C1C(O)=C([C@H]2CC[C@H](c3ccc(Cl)cc3)CC2)C(=O)c2ccccc21 [Example 4] : 4.653
O=C1C(O)=C([C@H]2CC[C@H](c3ccc(Cl)cc3)CC2)C(=O)c2ccccc21 [Example 2] : 6.176

[I] O=C1C(O)=C([C@H]2CC[C@H](c3ccc(Cl)cc3)CC2)C(=O)c2ccccc21 [Example 5]
[II] O=C1C(O)=C([C@H]2CC[C@H](c3ccc(Cl)cc3)CC2)C(=O)c2ccccc21 [Example 3]
Challenge: Pick one: I or II . Which one has the lower reported D90 particle size? Identify your selection by its label.
Response given: II
(II: 4.280 microns, I: 8.276 microns)
